// provenance: ChEMBL document CHEMBL5725509

Biological target: G-protein coupled receptor 6 (Homo sapiens, UniProt P46095)
Sequence (P46095 whole entry): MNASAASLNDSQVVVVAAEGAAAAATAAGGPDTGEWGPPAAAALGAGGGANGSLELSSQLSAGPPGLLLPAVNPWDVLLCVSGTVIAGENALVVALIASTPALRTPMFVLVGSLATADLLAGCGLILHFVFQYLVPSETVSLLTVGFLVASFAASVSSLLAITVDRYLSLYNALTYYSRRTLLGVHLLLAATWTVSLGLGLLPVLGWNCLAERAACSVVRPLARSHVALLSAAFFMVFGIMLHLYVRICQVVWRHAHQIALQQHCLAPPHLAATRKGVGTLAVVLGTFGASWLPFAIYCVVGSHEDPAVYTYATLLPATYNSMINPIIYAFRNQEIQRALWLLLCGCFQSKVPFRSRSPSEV
Assay: cAMP assay A.1: This cell based assay measures the ability of compounds to inhibit the constitutive cAMP activity of GPR6 receptor expressed in CHO-K1 cells. CHO cells were stably expressed with GPR6 receptor, whose expression is controlled by a tetracycline inducable element. The cells were cultured in medium containing F12K, 10% FBS, 1% Penn/Strep, 200 ug/mL Hygromycin. GPR6 receptor expression was induced for 20 hrs with 1 μg/ml doxycycline (sigma D9891) in growth media. After addition of doxycycline cells were plated at a density of 250-500 cells per well in half-volume black clear bottom plates (Costar) and place in an incubator (37°, 5% C(O)2) for 20 hours prior to cAMP assays. Culture media was removed from cells and they were washed with 50 μL of Ringer's Buffer (MgCl2 0.047 mg/mL, NaH2PO4 0.18 mg/mL, Na2HPO4 0.1 mg/mL, KCl 0.34 mg/mL, NaHC(O)3 1.26 mg/mL, D-glucose 1.8 mg/mL, NaCl 7 mg/mL; pH=7.4). Compounds suspended in DMSO were diluted in Ringer's Buffer containing 0.5% fatty acid free BSA and incubated on cells for 45 min at 37° and 5% C(O)2. After incubation cells were incubated for 10 min at room temp with Eu-cAMP tracer solution from a Perkin Elmer Lance HTRF UltracAMP assay kit (TRF0264). Then ULight-anti-cAMP solution from the Lance HTRF kit was added and incubated on a shaker at room temp for 1 hour prior to HTRF detection in a BMG PolarStar Omega. IC50 curves were generated with a four-parameter logistic equation using GraphPad Prism 5.03.
parameter: IC50

CN1CCc2nc(N3CCC(Oc4ccc(F)cc4F)CC3)c(NCC(F)F)nc2C1
> 1 mM

// next entry
Name the recorded IC50 for CC(=O)N1CCc2nc(N3CCN(C(=O)OC(C)(C)C)CC3)c(NC(C)C)nc2C1 .
> 1 mM
